Target: T1, Human PDGF-BB (human, UniProt P01127 82-190)
T1 construct: Recombinant human PDGF-BB, a dimer of two B chains; also called huPDGF-BB; hPDGF-BB
T1 sequence (P01127 82-190 limits assumed): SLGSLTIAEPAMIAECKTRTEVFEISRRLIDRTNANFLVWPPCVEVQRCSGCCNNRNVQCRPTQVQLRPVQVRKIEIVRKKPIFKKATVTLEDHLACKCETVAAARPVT
Assay: Biacore SPR (Example 1.1)
Method: Unreacted moieties on the biosensor surface were blocked with ethanolamine. […] The equilibrium dissociation constant KD (M) of the reaction between antibodies and the target antigen was then calculated from the kinetic rate constants by the following formula: KD=Koff/Kₒₙ. Binding was recorded as a function of time and kinetic rate constants were calculated. In this assay, on-rates as fast as 10⁶M⁻¹s⁻¹ and off-rates as slow as 10⁻⁶ s⁻¹ could be measured.
pKd: −log10 of the molar value.

{"Binder": "BFU-3E2-B9-B8 (antibody, V domains shown) VH: EVQLQQSGPELQRPGASVKLSCKASGYTFTESYMYWVKQRPEQSLELIGRIDPEDGSTDYVEKFKNKATLTADTSSNTAYMQLSSLTSEDSATYFCARFGARSYFYPMDAWGQGTSVTVSS VL: DTVLTQPPALAVSPGERVSISCRASESVSTLMHWYQQKPGQQPRLLIYGASNLESGVPARFSGSGSGTDFTLTIDPVEADDTATYFCQQSWNDPWTFGGGTKLELK", "pKd": "≥ 12.82"}
{"Binder": "BDI-5G2-F9 (antibody, V domains shown) VH: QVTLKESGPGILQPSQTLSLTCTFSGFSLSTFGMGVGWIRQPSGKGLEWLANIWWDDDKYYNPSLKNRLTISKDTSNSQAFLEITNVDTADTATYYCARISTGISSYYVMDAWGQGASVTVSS VL: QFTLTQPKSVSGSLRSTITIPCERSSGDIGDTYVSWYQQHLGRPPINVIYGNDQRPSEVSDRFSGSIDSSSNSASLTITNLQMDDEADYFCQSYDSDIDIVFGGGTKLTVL", "pKd": "≥ 13.00"}
{"Binder": "BFU-11A8-D6-C3 (antibody, V domains shown) VH: EVQLQQSGPELQRPGASVKLSCKASGYTFTESYIYWVKQRPEQSLELIGRIDPEDGSTDYVEKFKNKATLTADTSSNTAYMQLSSLTSEDTATYFCARFGARSYFYPMDAWGQGTSVTVSS VL: DTVLTQSPTLAVSPGERVSIPCRASESVSTLMHWYQQKPGQQPRLLIYGASNLESGVPARFSGSGSGTDFTLTIDPVEADDTATYFCQQSWNDPWTFGGGTKLELK", "pKd": "≥ 13.33"}
